Target: T1, N1 binding to cell surface expressed hJ1 (Homo sapiens, UniProt P78504)
T1 construct: cell expressed full length human J1 (hJ1; HEK293 transfectants); expressed in transfected cells; host or cells: HEK293
T1 sequence (P78504 34-1218): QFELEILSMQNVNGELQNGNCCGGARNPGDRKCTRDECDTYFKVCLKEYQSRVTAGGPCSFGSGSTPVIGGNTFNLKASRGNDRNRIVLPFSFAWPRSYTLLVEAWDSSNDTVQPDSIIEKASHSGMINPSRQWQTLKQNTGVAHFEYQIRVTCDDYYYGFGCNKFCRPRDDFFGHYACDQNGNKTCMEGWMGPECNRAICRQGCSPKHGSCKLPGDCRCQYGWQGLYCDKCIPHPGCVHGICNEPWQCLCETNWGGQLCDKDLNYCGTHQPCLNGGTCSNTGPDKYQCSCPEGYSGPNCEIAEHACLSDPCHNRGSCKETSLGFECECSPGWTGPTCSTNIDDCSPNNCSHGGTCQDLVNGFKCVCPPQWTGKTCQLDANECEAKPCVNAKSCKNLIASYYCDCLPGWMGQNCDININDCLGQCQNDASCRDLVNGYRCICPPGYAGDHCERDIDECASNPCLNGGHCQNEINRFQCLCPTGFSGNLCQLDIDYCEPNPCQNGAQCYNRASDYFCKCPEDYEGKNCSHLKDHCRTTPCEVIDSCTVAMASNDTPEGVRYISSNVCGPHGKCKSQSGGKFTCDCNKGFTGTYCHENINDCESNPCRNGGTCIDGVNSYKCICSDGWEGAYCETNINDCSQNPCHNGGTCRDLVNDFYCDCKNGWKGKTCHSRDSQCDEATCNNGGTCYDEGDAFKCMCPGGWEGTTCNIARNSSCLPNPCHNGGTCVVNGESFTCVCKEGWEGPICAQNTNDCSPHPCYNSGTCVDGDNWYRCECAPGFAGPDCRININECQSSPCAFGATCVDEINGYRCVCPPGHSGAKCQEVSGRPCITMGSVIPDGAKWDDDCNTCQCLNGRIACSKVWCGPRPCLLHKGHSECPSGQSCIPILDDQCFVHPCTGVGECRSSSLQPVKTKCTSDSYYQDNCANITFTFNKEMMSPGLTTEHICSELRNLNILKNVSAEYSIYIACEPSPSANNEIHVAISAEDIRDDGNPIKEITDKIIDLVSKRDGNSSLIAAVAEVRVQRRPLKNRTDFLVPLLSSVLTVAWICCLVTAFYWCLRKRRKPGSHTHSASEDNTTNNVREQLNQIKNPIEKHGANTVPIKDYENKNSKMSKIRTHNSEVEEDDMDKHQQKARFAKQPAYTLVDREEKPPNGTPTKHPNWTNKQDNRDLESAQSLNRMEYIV
Test: Notch binding blocking assay (FACS): N1 EGF11-13 beads staining human J1-expressing cells
Set-up: key: +: Complete blocking; X: No blocking
Conditions: final antibody concentration 0.2 μg/ml
Measured Parameter: Blocking of Notch1 binding to cell surface Jagged 1

J1-183D variant 6: humanised/de-immunised J1-183D: J1-183D_VL_2 + J1-183D_VH_2 (antibody, V domains shown) VH: QVQLVQSGAELKKPGASVKVSCKVSGYAFTDYAIHWIRQAPGQGLEWMGIINTYYGDSKYAQKFQGRVTMTVDTSTSTAYMELSSLRSEDTAVYYCARGYDGFAYWGQGTLVTVSSASTKGP VL: DIQMTQSPSSLSASVGDRVTITCRTSENIYSYLTWYQQKPGKAPKLLIYNAKTLASGVPSRFSGSGSGTDFTLTISSLQPEDFATYYCQHHYDIPWTFGGGTKLEIKRT ... X
